- TARGET_ENTITY: directly coated FAP peptides mixture (cFAP)
- PROCEDURE_TEXT: Direct ELISA, mixture of FAP-specific peptides directly coated
- Assay type: binding, human
- CONDITION_DETAILS: non-linear regression
READOUT_NAME: EC50, binding to directly coated FAP peptides mixture (cFAP)

>>> value_measured("NI-206.82C2: recombinant human memory B cell-derived monoclonal anti-FAP IgG1 antibody, variable regions in FIG. 1A, FAP inhibitory (antibody, V domains shown) VH: QVQLQQSGPGLVKPSQTLSLTCAISGDSVSSNSVTWNWIRQSPSRGLEWLGRTYYRSKWYNDYAVSVKGRITINPDTSKNQFYLQLKSVTPEDAAVYYCARDSSILYGDYWGQGTLVTVSS VL: QAVLTQPSSLSASPGASASLTCTLPSGINVGTYRIFWFQQKPGSPPQYLLSYKSDSDNHQGSGVPSRFSGSKDASANAGILLISGLQSEDEADYYCMIWHSSAWVFGGGTKLTVL")
"did not show any binding"
>>> value_measured("NI-206.27E8: recombinant human-derived monoclonal anti-FAP antibody, variable regions in FIG. 1 (antibody, V domains shown) VH: EVQLVESGGGLVEPGGSLRLSCAASGFTFSDAWMNWVRQAPGKGLEWVGRIKTKSDGGTTDYAAPVRGRFSISRDDSKNTLFLEMNSLKTEDTAIYYCFITVIVVSSESPLDHWGQGTLVTVSS VL: SYELTQPPSVSVSPGQTARITCSGDELPKQYAYWYQQKPGQAPVLVIYKDRQRPSGIPERFSGSSSGTTVTLTISGVQAEDEADYYCQSAYSINTYVIFGGGTKLTVL")
"did not show any binding"
>>> value_measured("NI-206.12G4: recombinant human-derived monoclonal anti-FAP antibody, variable regions in FIG. 1 (antibody, V domains shown) VH: EVQLVESGGGLVKPGGSLRLSCAASGFTFSDYYMSWIRQAPGKGLEWISYISSGSSYTNYADSVKGRFTISRDNAKKSVYLEVNGLTVEDTAVYYCARVRYGDREMATIGGFDFWGQGTLVTVSS VL: SYELTQPPSVSVSPGQTARITCSGDALPKQYAYWYQQSPGQAPVLVIYKDSERPSGIPERFSGSSSGTTVTLTISGVQAEDEADYYCQSADSGGTSRIFGGGTKLTVL")
"did not show any binding"
>>> value_measured("NI-206.17A6: recombinant human-derived monoclonal anti-FAP antibody, variable regions in FIG. 1 (antibody, V domains shown) VH: QVQLQESGPGLVRSTETLSLTCLVSGDSINSHYWSWLRQSPGRGLEWIGYIYYTGPTNYNPSLKSRVSISLGTSKDQFSLKLSSVTAADTARYYCARNKVFWRGSDFYYYMDVWGKGTTVTVSS VL: EIVLTQSPGTLSLSLGERATLSCRASQSLANNYLAWYQQKPGQAPRLLMYDASTRATGIPDRFSGSGSGTDFTLTISRLEPEDFAVYYCQQFVTSHHMYIFGQGTKVEIK")
"did not show any binding"

Turning to the following molecule.
What value of EC50, binding to directly coated FAP peptides mixture (cFAP) has been recorded for this entry: NI-206.59B4: recombinant human-derived monoclonal anti-FAP antibody, variable regions in FIG. 1 (antibody, V domains shown) VH: QVQLVQSGAEVKKPGASVKVSCKTSGYTFTDYYIHWVRQAPGQGLEWMGWINPNRGGTNYAQKFQGRVTMTRDTSIATAYMELSRLRSDDTAVYYCATASLKIAAVGTFDCWGQGTLVTVSS VL: SYELTQPPSVSVSPGQTARITCSGDALSKQYAFWFQQKPGQAPILVIYQDTKRPSGIPGRFSGSSSGTTVTLTISGAQADDEADYYCQSADSSGTYVFGTGTKVTVL did not show any binding
